Exercise: for every item that follows, state its recorded IC50.
- Target of assay: FLuc-C-HiBiT (Photinus pyralis, UniProt P08659)
- Construct: firefly luciferase with C-terminal HiBiT tag, E. coli expressed
- Sequence (P08659 whole entry, looked up): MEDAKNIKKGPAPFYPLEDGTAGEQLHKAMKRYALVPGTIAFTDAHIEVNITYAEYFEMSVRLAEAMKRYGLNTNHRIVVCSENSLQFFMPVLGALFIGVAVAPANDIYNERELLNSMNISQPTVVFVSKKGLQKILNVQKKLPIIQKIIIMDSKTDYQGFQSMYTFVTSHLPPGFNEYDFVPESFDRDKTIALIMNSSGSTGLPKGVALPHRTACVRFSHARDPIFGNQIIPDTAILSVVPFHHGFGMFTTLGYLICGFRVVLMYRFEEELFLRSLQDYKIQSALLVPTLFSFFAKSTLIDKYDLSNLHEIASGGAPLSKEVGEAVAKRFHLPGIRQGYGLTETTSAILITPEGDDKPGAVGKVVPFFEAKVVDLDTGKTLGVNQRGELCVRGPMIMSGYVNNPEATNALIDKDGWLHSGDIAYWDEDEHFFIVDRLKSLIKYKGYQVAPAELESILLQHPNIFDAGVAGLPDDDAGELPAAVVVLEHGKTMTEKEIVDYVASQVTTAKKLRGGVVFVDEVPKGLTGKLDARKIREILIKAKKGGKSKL
- Assay method text: biochemical
- Run conditions: enzyme activity, 10 uM ATP; read-out: IC50 or SDR50 (mM) / FLuc E

Bench note, FLuc-C-HiBiT (Photinus pyralis, UniProt P08659): entry O=C(Nc1cccc(-c2ccc(N3CCOCC3)nn2)c1)Nc1ccc2c(c1)CCC2 [NCGC00427612-01] , its IC50 = 0.00279 mM

Value sought: IC50, system FLuc-C-HiBiT (Photinus pyralis, UniProt P08659), item COc1cccc(-c2ncc3c(n2)OCCN(Cc2ccc(F)cc2F)C3=O)c1 [NCGC00413648-01] . Result: 0.0161 mM

Measured IC50 (FLuc-C-HiBiT (Photinus pyralis, UniProt P08659)), entry Fc1ccc(-c2cc3c(cn2)CN(Cc2ccncc2)CCN3)cc1Cl [NCGC00411256-01] : 0.018 mM

# lookup: COc1cc(-c2nc3ccccc3s2)ccc1O [NCGC00390758-02] on FLuc-C-HiBiT (Photinus pyralis, UniProt P08659), IC50 = 0.0111 mM

Measured on FLuc-C-HiBiT (Photinus pyralis, UniProt P08659), Cc1ccc(NC(=O)Nc2ccc(C)n(CC(=O)NCCC(C)C)c2=O)cc1 [NCGC00430794-01] has a documented IC50 of 0.00111 mM

Field IC50 (FLuc-C-HiBiT (Photinus pyralis, UniProt P08659)), entry Cc1ccc(-c2nc3ccccc3s2)cc1NC(=O)COc1ccccc1 [NCGC00098596-01] : > 0.03 mM

Item O=C(Nc1nn(-c2cccc(F)c2)c2cccc(N3CCOCC3)c12)C1CCC1 [NCGC00440498-01] ; assay system FLuc-C-HiBiT (Photinus pyralis, UniProt P08659); IC50 reported as 0.0111 mM

For the compound Cc1cccn2c(=O)c(C(=O)NCCc3ccccc3)cnc12 [NCGC00137532-01] , the measured IC50 on FLuc-C-HiBiT (Photinus pyralis, UniProt P08659) was 0.007 mM

Fill in: FLuc-C-HiBiT (Photinus pyralis, UniProt P08659) IC50 for Nc1nc(N2CCC3(CC2)NC(=O)CC3C(=O)O)c2nc[nH]c2n1 (stereo not drawn) [NCGC00447244-01] = > 0.03 mM

====

- Target of assay: FLuc-C-HiBiT (firefly luciferase) (Photinus pyralis, UniProt P08659, form not given/L550V)
- Sequence (P08659 2-550 L550V, form open): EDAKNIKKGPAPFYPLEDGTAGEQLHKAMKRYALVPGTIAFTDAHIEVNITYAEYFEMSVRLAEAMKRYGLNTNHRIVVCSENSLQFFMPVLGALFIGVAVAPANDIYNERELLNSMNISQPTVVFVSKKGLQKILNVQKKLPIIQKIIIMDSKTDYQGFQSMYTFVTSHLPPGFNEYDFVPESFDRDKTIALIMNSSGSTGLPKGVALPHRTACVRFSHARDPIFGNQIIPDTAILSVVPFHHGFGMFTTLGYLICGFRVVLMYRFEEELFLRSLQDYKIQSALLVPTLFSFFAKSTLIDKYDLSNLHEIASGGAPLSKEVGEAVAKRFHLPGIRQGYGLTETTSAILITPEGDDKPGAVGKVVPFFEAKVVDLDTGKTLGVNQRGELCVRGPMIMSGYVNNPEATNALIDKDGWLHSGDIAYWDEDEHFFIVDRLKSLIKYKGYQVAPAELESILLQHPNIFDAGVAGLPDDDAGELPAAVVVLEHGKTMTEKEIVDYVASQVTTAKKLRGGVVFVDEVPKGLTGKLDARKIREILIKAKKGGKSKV
- Assay method text: SDR assay, FLuc-C-HiBiT
- Run conditions: 10 nM FLuc-C-HiBiT; normalized activity; Log [Compound], M -5.91
Outcome measure: SDR + 10 mM ATP
Keep it simple and answer with nothing but the number.

Notebook: CNC(=O)c1cccc2c1CCN2C(=O)Nc1ccc(C)cc1 [compound 00430160] , SDR + 10 mM ATP read as 106.1

Given item O=C(O)CCSc1nnc(-c2ccc(Cl)cc2Cl)o1 [compound 00103142] , the value recorded as its SDR + 10 mM ATP is 53.9

// recorded SDR + 10 mM ATP for O=C(O)c1cccc2c1CCN2C(=O)Nc1ccc(F)cc1 [compound 00432687] : 124.2

Note to self: SDR + 10 mM ATP recorded for Fc1ccc(-c2cn3cc(Cc4ccccc4)sc3n2)cc1 [compound 00102110] was 23.9

Entry under test: COc1ccc(-c2nc(-c3ccc(C(=O)O)cc3)no2)cc1 [compound 00168104] . Its SDR + 10 mM ATP was 70.0

The recorded SDR + 10 mM ATP for entry CC(CNC(=O)C1CCN(C(=O)c2ncn3c2COC(c2ccccc2)C3)CC1)c1ccccc1 (centres unmarked) [compound 00449795] equals 34.2

Measured SDR + 10 mM ATP, Cc1ccc(-n2ncc3c(N4CCCCCC4)ncnc32)cc1 [compound 00139018] : 43.7

What the record says about CC1CCCN(c2ncnc3c2cnn3-c2ccccc2)C1 (centres unmarked) [compound 00081381] : SDR + 10 mM ATP is 23.8
